Sourced from the supplement of paper PMC10724198

Test system: Saccharomyces cerevisiae
Test: protein stability index of tFT-peptide fusion (C-terminal peptide) (PSI (0-1 scale)); higher = more stable (slower turnover)
Conditions: genetic background: das1 deletion; temperature: 30 C
Would you kindly list protein stability index for each of these sequences?
Please give only the number in your answer, with no unit.

// protein stability index value for INKDMTKKKMKF [MFG1 C-terminal 12 aa] : 0.689

// protein stability index value for EYLQSMKTSINR [SFB2 C-terminal 12 aa] : 0.69

// protein stability index value for PNEFLRDQSTDI [APL5 C-terminal 12 aa] : 0.707

// protein stability index value for TSASSNLDDSFS [YPR002C-A C-terminal 12 aa] : 0.69

// protein stability index value for FPWSHGTCIRGA [YOR376W C-terminal 12 aa] : 0.696

// protein stability index value for KPTASSSRKMFR [DUO1 C-terminal 12 aa] : 0.717

// protein stability index value for SMVSCLLTLYVL [GTT3 C-terminal 12 aa] : 0.474

// protein stability index value for QLKACQEAARQY [MIX17 C-terminal 12 aa] : 0.675

// protein stability index value for AERFDNTEVLHL [STE13 C-terminal 12 aa] : 0.701

// protein stability index value for EKDELDNIEVSK [QCR7 C-terminal 12 aa] : 0.696

// protein stability index value for ELIISKREIEKE [GEA1 C-terminal 12 aa] : 0.724

// protein stability index value for TYRLGEWSKISV [POP1 C-terminal 12 aa] : 0.694

----------
Tested on: Saccharomyces cerevisiae
Assay: protein stability index of tFT-peptide fusion (C-terminal peptide) (PSI (0-1 scale)); higher = more stable (slower turnover)
Conditions: genetic background: wild type; temperature: 30 C
Would you kindly list protein stability index for each of these sequences?
Please give only the number in your answer, with no unit.

// protein stability index value for LKSIYTSERITI [RAD61 C-terminal 12 aa] : 0.667

// protein stability index value for VAAKIAALAGQQ [RPL5 C-terminal 12 aa] : 0.717

// protein stability index value for DTTFTGCTKKIL [YGL102C C-terminal 12 aa] : 0.66

// protein stability index value for EENENDCDSEIQ [RTS1 C-terminal 12 aa] : 0.696

// protein stability index value for QSLLDSLAKLQK [NAB3 C-terminal 12 aa] : 0.678

// protein stability index value for AYFPQKYKHKYI [PRM6 C-terminal 12 aa] : 0.566

// protein stability index value for LINGTRIMNSIS [VPS33 C-terminal 12 aa] : 0.532

// protein stability index value for TLQSEINISVKH [ENA5 C-terminal 12 aa] : 0.691

// protein stability index value for RRCDDMLYYIQN [POP4 C-terminal 12 aa] : 0.662

// protein stability index value for QEEEEDVATDSE [YRO2 C-terminal 12 aa] : 0.711

// protein stability index value for VYKDWEMNLMLS [ARG81 C-terminal 12 aa] : 0.656

// protein stability index value for FPWSHGTCIRGA [YOR376W C-terminal 12 aa] : 0.688

// protein stability index value for GFADLDNFMSSL [HAA1 C-terminal 12 aa] : 0.689

// protein stability index value for QGPRPGNWDQED [CCT8 C-terminal 12 aa] : 0.678

// protein stability index value for LSPSYSCRYHGR [YPL152W-A C-terminal 12 aa] : 0.683

// protein stability index value for VRQMNRLATPLI [PUS2 C-terminal 12 aa] : 0.739

// protein stability index value for PVGAGNEPINPE [URN1 C-terminal 12 aa] : 0.704

// protein stability index value for QTSAKVSIRLLY [SER33 C-terminal 12 aa] : 0.595

// protein stability index value for GGGASSIVIEKI [ERG10 C-terminal 12 aa] : 0.694

// protein stability index value for SVSDPVKSEDSS [NCB2 C-terminal 12 aa] : 0.689

// protein stability index value for ANTHSSLICSKP [YBR209W C-terminal 12 aa] : 0.701

// protein stability index value for SCFSYSVGSKFT [YPR170W-A C-terminal 12 aa] : 0.703

// protein stability index value for SLNRPAERGGNR [YNL143C C-terminal 12 aa] : 0.688

// protein stability index value for TSNDLPAECVIS [EGH1 C-terminal 12 aa] : 0.688

// protein stability index value for NKLKTLLAKIFD [IPI1 C-terminal 12 aa] : 0.699
